Target Or Test System: T1, EsCas13d, nuclease-dead (Eubacterium siraeum, UniProt B0MS50, R295A;H300A;R849A;H854A)
T1 sequence: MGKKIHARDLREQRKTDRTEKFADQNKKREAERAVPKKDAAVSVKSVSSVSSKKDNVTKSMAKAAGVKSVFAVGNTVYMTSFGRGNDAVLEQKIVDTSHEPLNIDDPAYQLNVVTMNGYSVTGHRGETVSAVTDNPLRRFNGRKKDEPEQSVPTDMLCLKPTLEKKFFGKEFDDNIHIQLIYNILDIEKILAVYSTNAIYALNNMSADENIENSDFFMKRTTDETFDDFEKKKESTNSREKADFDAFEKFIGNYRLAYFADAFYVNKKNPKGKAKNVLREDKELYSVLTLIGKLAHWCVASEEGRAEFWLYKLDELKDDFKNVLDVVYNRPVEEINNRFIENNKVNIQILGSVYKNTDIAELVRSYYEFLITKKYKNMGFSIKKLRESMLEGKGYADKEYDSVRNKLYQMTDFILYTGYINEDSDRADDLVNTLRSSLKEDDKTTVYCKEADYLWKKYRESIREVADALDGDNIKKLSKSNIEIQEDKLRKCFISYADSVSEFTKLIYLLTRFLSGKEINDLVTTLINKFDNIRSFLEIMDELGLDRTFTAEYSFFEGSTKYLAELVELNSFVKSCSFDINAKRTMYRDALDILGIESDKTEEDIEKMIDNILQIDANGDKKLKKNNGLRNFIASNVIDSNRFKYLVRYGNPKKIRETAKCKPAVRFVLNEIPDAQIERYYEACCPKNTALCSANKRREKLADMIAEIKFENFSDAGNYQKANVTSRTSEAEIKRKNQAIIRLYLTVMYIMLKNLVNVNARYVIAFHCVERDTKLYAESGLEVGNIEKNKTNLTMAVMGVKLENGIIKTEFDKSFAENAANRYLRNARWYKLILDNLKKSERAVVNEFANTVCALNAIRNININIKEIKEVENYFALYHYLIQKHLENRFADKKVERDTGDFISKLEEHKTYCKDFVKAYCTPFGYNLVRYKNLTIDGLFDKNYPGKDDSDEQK
Protocol Details: crRNA (strand 1, pre-loaded); Mg2+; 40 mM Tris-HCl pH 7.5, 150 mM NaCl, 6 mM MgCl2, 1 mM DTT, 0.1% Tween-20, 0.2 mg/ml BSA; 25 C; 10 min per concentration, then washed
Measurement Context: tags: His6-TwinStrep-SUMO cleaved; N-terminal SNAP kept (SNAP-Surface 488); label: 3' end held by stalled T7 RNA polymerase
One threshold, 40 nM, splits the recorded Kd values: lower ones are Met, equal or higher ones are Not met.

**Q:** Please determine if target 1 insU 3' of 18,insU 3' of 13 (mixed) RNA 1: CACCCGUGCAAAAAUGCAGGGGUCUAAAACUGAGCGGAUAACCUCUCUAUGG RNA 2: GGGAAUGGAUCCACAUCUACGAAUUCGUACCAUAUGAGAGUGUUAUCCGCUCACCGAGAUCGGAAGAGCACACGU is below 40 nM in terms of Kd.
**A:** Met

**Q:** Please determine if target 1 insC 3' of 8,insU 3' of 7 (mixed) RNA 1: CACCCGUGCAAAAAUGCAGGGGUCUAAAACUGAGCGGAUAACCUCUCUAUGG RNA 2: GGGAAUGGAUCCACAUCUACGAAUUCGUACCAUAGAGAGGUUAUCCUCGCUCACCGAGAUCGGAAGAGCACACGU is below 40 nM in terms of Kd.
**A:** Met

**Q:** Please determine if target 1 insA 3' of 13,insG 3' of 7 (mixed) RNA 1: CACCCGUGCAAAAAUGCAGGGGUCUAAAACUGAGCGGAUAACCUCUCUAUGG RNA 2: GGGAAUGGAUCCACAUCUACGAAUUCGUACCAUAGAGAGAGUUAUCGCGCUCACCGAGAUCGGAAGAGCACACGU is below 40 nM in terms of Kd.
**A:** Met

**Q:** Please determine if target 2 MT 5'PFS AUG 3'PFS CUC (mixed) RNA 1: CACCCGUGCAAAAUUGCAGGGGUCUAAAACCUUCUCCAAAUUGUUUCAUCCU RNA 2: GGGAAUGGAUCCACAUCUACGAAUUCAUGAGGAUGAAACAAUUUGGAGAAGCUCAGAUCGGAAGAGCACACGU is below 40 nM in terms of Kd.
**A:** Met

**Q:** Please determine if target 3 insC 3' of 11,insA 3' of 10 (mixed) RNA 1: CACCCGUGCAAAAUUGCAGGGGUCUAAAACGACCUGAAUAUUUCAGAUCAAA RNA 2: GGGAAUGGAUCCACAUCUACGAAUUCGUUUUUGAUCUGAAACUAAUUCAGGUCUGCAGAUCGGAAGAGCACACGU is below 40 nM in terms of Kd.
**A:** Not met

**Q:** Please determine if target 3 A5U,A11G (mixed) RNA 1: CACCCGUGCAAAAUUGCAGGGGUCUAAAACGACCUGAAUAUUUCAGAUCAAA RNA 2: GGGAAUGGAUCCACAUCUACGAAUUCGUUUUUGAUCUGAAGUAUUCUGGUCUGCAGAUCGGAAGAGCACACGU is below 40 nM in terms of Kd.
**A:** Not met

**Q:** Please determine if target 2 MT 5'PFS GUG 3'PFS UCG (mixed) RNA 1: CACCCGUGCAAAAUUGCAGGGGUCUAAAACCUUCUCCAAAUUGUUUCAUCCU RNA 2: GGGAAUGGAUCCACAUCUACGAAUUCGUGAGGAUGAAACAAUUUGGAGAAGUCGAGAUCGGAAGAGCACACGU is below 40 nM in terms of Kd.
**A:** Met

**Q:** Please determine if target 1 insC 3' of 5,insU 3' of 5 (mixed) RNA 1: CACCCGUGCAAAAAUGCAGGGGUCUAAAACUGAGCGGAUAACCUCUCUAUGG RNA 2: GGGAAUGGAUCCACAUCUACGAAUUCGUACCAUAGAGAGGUUAUCCGCUCUCACCGAGAUCGGAAGAGCACACGU is below 40 nM in terms of Kd.
**A:** Met

**Q:** Please determine if target 2 MT 5'PFS UAA 3'PFS ACG (mixed) RNA 1: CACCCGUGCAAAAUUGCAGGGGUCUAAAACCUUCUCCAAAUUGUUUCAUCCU RNA 2: GGGAAUGGAUCCACAUCUACGAAUUCUAAAGGAUGAAACAAUUUGGAGAAGACGAGAUCGGAAGAGCACACGU is below 40 nM in terms of Kd.
**A:** Met

**Q:** Please determine if target 1 C2U,C22A (mixed) RNA 1: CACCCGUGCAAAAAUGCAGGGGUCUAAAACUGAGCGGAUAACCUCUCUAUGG RNA 2: GGGAAUGGAUCCACAUCUACGAAUUCGUAACAUAGAGAGGUUAUCCGCUUACCGAGAUCGGAAGAGCACACGU is below 40 nM in terms of Kd.
**A:** Met

**Q:** Please determine if target 2 MT 5'PFS GAU 3'PFS CAG (mixed) RNA 1: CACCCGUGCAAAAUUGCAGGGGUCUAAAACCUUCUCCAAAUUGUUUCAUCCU RNA 2: GGGAAUGGAUCCACAUCUACGAAUUCGAUAGGAUGAAACAAUUUGGAGAAGCAGAGAUCGGAAGAGCACACGU is below 40 nM in terms of Kd.
**A:** Met

**Q:** Please determine if target 1 MT 5'PFS UGC 3'PFS UAC (mixed) RNA 1: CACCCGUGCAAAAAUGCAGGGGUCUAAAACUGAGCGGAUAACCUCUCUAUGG RNA 2: GGGAAUGGAUCCACAUCUACGAAUUCUGCCCAUAGAGAGGUUAUCCGCUCAUACAGAUCGGAAGAGCACACGU is below 40 nM in terms of Kd.
**A:** Met

**Q:** Please determine if target 3 C1U,A12G (mixed) RNA 1: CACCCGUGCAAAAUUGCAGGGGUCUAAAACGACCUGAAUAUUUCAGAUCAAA RNA 2: GGGAAUGGAUCCACAUCUACGAAUUCGUUUUUGAUCUGAGAUAUUCAGGUUUGCAGAUCGGAAGAGCACACGU is below 40 nM in terms of Kd.
**A:** Not met

**Q:** Please determine if target 3 U2A,G3A (mixed) RNA 1: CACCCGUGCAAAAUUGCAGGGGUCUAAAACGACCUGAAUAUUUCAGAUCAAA RNA 2: GGGAAUGGAUCCACAUCUACGAAUUCGUUUUUGAUCUGAAAUAUUCAGAACUGCAGAUCGGAAGAGCACACGU is below 40 nM in terms of Kd.
**A:** Met

Hey, just so you know, these numbers are from paper PMC10786891.
